Origin of measurements: a protein production outcome set (Wang et al. 2014)

- assay method text: label from the status in PepcDB records
recorded endpoint: protein production

• TIFKDIYQLWFTQYKQTVKESTWVTTQRLFRLHILPIFSDYRIAKISIKDCQKAINQWFNAGLAKYHTLMNYVAKVLDYAINIDLISENPAKRVIVPVNKNDRS = failed
• MDKKPSILIFIVAYNAESTIENVLMRIPADLLDDFDAEVLVIDDQSSDDTVLRCAETIQSGKIRFKTNVLVNPENQGYGGNQKVGYQYAIEHDFDCVALLHGDGQYAPEYLRDLITPVTKGEAEAVFGSRMMTPFGALKGGMPAYKFVGNKILTLFQNIMLKTSLSEFHSGYRAYSVKALKQIPFHLNTPDFHFDTEIIIQLILWGFRIAERPIPTYYGDEICYVNGLKYALDVVITTTKARMQRLGLFHECKYEVIHPHNSNGYPEAKLSIKSPSGNRILEHHHHHH = failed
• MSETITFPPLMTGEAAGPGQDPFDLACQKAELGVDAGLVVYELGTDVLRAALVLAPEVPLAKAMAMLPVCGVGFQNALGALAPPEVAVHLDWNGALRINGARCGRLRIAASTDDPDTQPDWLVVGLDLPLWPEGDGGETPDETALYAEGCADVAAPRLLESWARHCLHWINRWDEGELETIHGEWRGLAHGMGEARTEAGRSGTFLGVDEDFGMLLRDETTTHLIPLTTVLVQD = not failed
• MFKRFVLSLAFLIMAAVVSFQVIFTVPEHPQIITQTGSEITEDIRCIEFSGAKALDDNGELNLLVWNIYKQNRANWQSELELFSADKQLLLLQEASMTDSFKQWLVDGSWVSNQVSAFKALGSGAGVISIAQKQPIKACAYTSKEPWLRLPKSALYSQYRLSNGESLAVINVHAINFTVGTEEYTSQLSALETLLKQHSGPIVFAGDFNSWSEYRITAMKQALREANLREVQFSPDHRTQFITGLPLDHVFYRGLTLKNAKAPQSDASDHNPLLVSFTLND = failed
• MVKEPGGKHVLCVGAAVLDTLFRVADMPKGEGKVLPYEVLQIAEGMASSAAYAVHRMGGRASLWGAVGDDETGTRILRDLSESGIDTSGMTVAPGARSALSTIIIDNRGERLIVPFYDHRLHEKKRACTPEDIALFDAVLVDVRWPELALDVLTVARALGKPAILDGDVAPVETLEGLAPAATHIVFSEPAATRLTGLETVKDMLPVLHARYPQTFIAVTAGPAGCWWTEADDPTVHFQTTMQVEAVDTLAAGDIFHGTFALAMAEGMQSRAAVRLSSVAAALKCTVFGGRIGAPTREETEEAMRQWLERESEPALRAS = not failed

Quote protein production reported for MGCGFSRQHVVKTNVSSFDRELLDLKIQRDSLQQYEQRLSDSLKNYIKLARRLVAENQRQQALVVLQVKHALQKSIEKAQNMRFNLEQVLSEIELKQIETDYVLKLRTGTKLLQSIQKTLSIEEIEHLLEETKEAIEFQNKVTEVLGSFSLMEIDESCEEELEQLETAMFPPVPKRLEKTMTPQVTENMQVKSETAKEYSKQESILLPS please.
not failed

Provide one value: measured protein production of MGLGMEIGKLIVAFLVLINPFSALSLYLDLTNGHSTKERRKVARTAAVAVFAVIAVFALIGGALLKVLGISVGSFQVGGGILVLLIAISMMNGNDNPAKQNLGAQPETGQARPARNAGAIAVVPIAIPITIGPGGISTVIIYASAAKTYSDIALIIAAGLVVSAICYAILIVAGKVSRLLGATGLTILNRIMGMMLAAVSVEIIVSGLKTIFPQLAG
failed
